Cited source for all entries: patent US20180220650A1

assay: Hydrolytic stability assay; format: physicochemical; settings: aqueous buffer with acetonitrile co-solvent; pH 7 + 25% MeCN; 40° C.; read-out: Hydrolytic Stability (t1/2, hours) (converted)
assay readout: half-life

Consider the worked cases shown below.
>>> result("CC1=C(C)C(O/C=C2/C(=O)O[C@]3(C)CC[C@H]4C(C)(C)CCC[C@]4(C)[C@@H]23)N(c2ccccc2)C1=O (stereo partly drawn)")
"> 18.1 h"
>>> result("CC1=C(C)C(O/C=C2/C(=O)O[C@]3(C)CC[C@H]4C(C)(C)CCC[C@]4(C)[C@@H]23)OC1=O (stereo partly drawn)")
"> 17.6 h"

Next compound, please.
Query: half-life; subject: CC1=CC(O/C=C2/C(=O)O[C@]3(C)CC[C@H]4C(C)(C)CCC[C@]4(C)[C@@H]23)OC1=O (stereo partly drawn)
> 17.6 h
